Would you kindly list Population Healthy Nuclei (%) for each of these molecules?
Test system: HEK-293T
Assay: Multiplex assay against HEK293T
Format: toxicity, cell-based
Details: human, 24 h, 1 µM, compound concentration 1 uM, replicate 1
# unit: % | format: bare number

Enquiry: Quick one: Population Healthy Nuclei (%) for CCCN1CCC[C@@H]2Cc3n[nH]cc3C[C@H]21.Cl [QUINPIROLE HYDROCHLORIDE] ?
Return: 79

Enquiry: Quick one: Population Healthy Nuclei (%) for "Cc1ccc(F)cc1C(=O)Nc1ccc(C(=O)N2Cc3cccn3Cc3ccccc32)c(Cl)c1" ?
Return: 77

Enquiry: Quick one: Population Healthy Nuclei (%) for CNC[C@H](O)c1ccc(O)c(O)c1 [EPINEPHRINE] ?
Return: 80

Enquiry: Quick one: Population Healthy Nuclei (%) for "COc1cc(NC(=O)CCN2CCC(OC(=O)Nc3ccccc3-c3ccccc3)CC2)c(Cl)cc1CNC[C@H](O)c1ccc(O)c2[nH]c(=O)ccc12" ?
Return: 77

Enquiry: Quick one: Population Healthy Nuclei (%) for COc1ccc2c(c1)C(C(=O)N(Cc1ccc(N(C)C)cc1)c1ccc(C(C)C)cc1)CCC2.Cl (stereo not given) ?
Return: 81
